- System: P388 leukemia ip, CD2F1 mice, survival T/C
- TEST NAME: NCI In Vivo Anticancer Drug Screen. Data for tumor model P388 Leukemia (intraperitoneal) in CD2F1 (CDF1) mice
- CONDITION: endpoint: median survival time; dose: 50.0 mg/kg/injection; schedule: Q01DX005 (ip); vehicle: saline; higher = longer survival
Toxic doses and inconclusive results are not listed. Square brackets hold non-standard residues; d marks the D form. Peptide text beside a SMILES is read from it. Nle = CCCC[CH](N)C(=O)O
# T/C listing for each entry below
READOUT TYPE: T/C

> print(dat)
                                   molecule                          target.or.system  readout.type            result
1                        CN1CCC2(CC1)OCCCO2  P388 leukemia ip, CD2F1 mice, survival T/C           T/C   99 % of control
2  CN(C)CCC1CC(O)CCC1(C)O (stereo not given)  P388 leukemia ip, CD2F1 mice, survival T/C           T/C   98 % of control
3  CC(C)CC(N)C(=O)NC(C)C(=O)NC(CC(C)C)C(=O)O (stereo not drawn) (H-Leu-Ala-Leu-OH; configuration not given here)  P388 leukemia ip, CD2F1 mice, survival T/C           T/C  102 % of control
4  CCCCC(N)C(=O)NC(CCSC)C(N)=O (stereo not given) (H-[Nle]-Met-NH2; configuration not given here)  P388 leukemia ip, CD2F1 mice, survival T/C           T/C  100 % of control
5  [Ni].c1c[nH]cn1.c1c[nH]cn1.c1c[nH]cn1.c1c[nH]cn1.c1c[nH]cn1.c1c[nH]cn1  P388 leukemia ip, CD2F1 mice, survival T/C           T/C  100 % of control
